Provenance of the data: paper PMC9268166

For each record, write down the corresponding logkwC8.
- EXPERIMENT_DESCRIPTION: C8 chromatography (RP-HPLC), logkw from two gradients with DryLab
- Format: physicochemical
- CONDITION_SUMMARY: pH 7.4, 40 °C; retention factor extrapolated to 0% organic modifier
- Text: For this reason, the next step of our study concerns the characterization of investigated sulfonamide derivatives using a chromatographic approach. Generally, in RP-HPLC, the interactions between solutes and the stationary phase surface are mainly governed by lipophilicity. Consequently, RP-HPLC is the primary tool for assessing the lipophilicity of xenobiotics. […]

Q: May I ask what logkwC8 has been recorded for Cc1cc(S(=O)(=O)Nc2nncc(-c3cccc(F)c3)n2)c(SCc2cccc3ccccc23)cc1Cl [Compound 22] ?
Result: 4.28

Q: Entry O=S(=O)(Nc1cccc2nsnc12)c1ccc(-n2cccc2)cc1 [Compound 5] : reported logkwC8 = ?
Result: 4.06

Q: logkwC8 lookup needed for O=C(Nc1ccc(Cl)cc1)c1cc(S(=O)(=O)Nc2nncc(-c3ccc(C(F)(F)F)cc3)n2)c(SCc2ccccc2)cc1Cl [Compound 15] , thanks.
Result: 4.53

Q: Please report the recorded logkwC8 for Cc1cc(S(=O)(=O)Nc2nncc(-c3cccc(F)c3)n2)c(SCc2ccc(C(F)(F)F)cc2)cc1Cl [Compound 24] .
Result: 4.26

----------
I'd be grateful if you could share measured logkIAM for these entries.
- EXPERIMENT_DESCRIPTION: IAM chromatography (IAM-HPLC), IAM.PC.DD2 column
- Assay type: physicochemical
- CONDITION_SUMMARY: logkIAM = 0.045 CHIIAM + 0.42; pH 7.4
Enter the number alone.

Q: Entry Cc1cc(S(=O)(=O)Nc2nncc(-c3cccc(F)c3)n2)c(SCc2cccc3ccccc23)cc1Cl [Compound 22] : reported logkIAM = ?
Result: 2.32

Q: # logkIAM lookup, item Cc1ccc2cccc(NS(=O)(=O)c3ccc(-n4cccc4)cc3)c2n1 [Compound 4]
Result: 2.49

Q: Reported logkIAM for Cc1cc(S(=O)(=O)Nc2nnc(C)c(=O)[nH]2)c(SCc2cccc3ccccc23)cc1Cl [Compound 9] : what is it?
Result: 1.83

Q: Would you mind telling me what logkIAM value was observed for COc1ccc(-c2cnnc(NS(=O)(=O)c3cc(C(=O)Nc4ccc(Cl)cc4)c(Cl)cc3SCc3ccccc3)n2)cc1 [Compound 16] ?
Result: 2.21

----------
Exercise: state measured CHIC18 for each of the molecules provided.
- EXPERIMENT_DESCRIPTION: C18 chromatography (RP-HPLC), chromatographic hydrophobicity index
- Type: physicochemical
- CONDITION_SUMMARY: pH 7.4, 40 °C, acetonitrile gradient
// return a plain number; no unit text

Q: Recorded CHIC18 for COc1ccc(-c2cnnc(NS(=O)(=O)c3cc(C)c(Cl)cc3SCc3cccc4ccccc34)n2)cc1 , please?
Result: 86.10

Q: Look up CHIC18 for this molecule: Cc1cc(S(=O)(=O)Nc2nnc(Cc3ccccc3[N+](=O)[O-])c(=O)[nH]2)c(SCc2cc3c(cc2Cl)OCO3)cc1Cl
Result: 79.30

Q: Can you look up the measured CHIC18 of CC(=O)NS(=O)(=O)c1cc(C)c(Cl)cc1SCc1cccc2ccccc12 for me?
Result: 84.10

Q: Which measured CHIC18 value corresponds to COc1ccc(-c2cnnc(NS(=O)(=O)c3cc(C(=O)Nc4ccc(Cl)cc4)c(Cl)cc3SCc3ccccc3)n2)cc1 ?
Result: 85.90

----------
Record form. Attribute: logkwCN. Fill in for each entry.
- EXPERIMENT_DESCRIPTION: Cyanopropyl (CN) chromatography, logkw from two gradients with DryLab
- Type: physicochemical
- CONDITION_SUMMARY: pH 7.4, 40 °C; retention factor extrapolated to 0% organic modifier

Q: // query logkwCN value for entry Cc1cc(S(=O)(=O)Nc2nnc(Cc3ccccc3[N+](=O)[O-])c(=O)[nH]2)c(SCc2cc3c(cc2Cl)OCO3)cc1Cl
Result: 2.16

Q: Fill blank: measured logkwCN of the compound CC(=O)NS(=O)(=O)c1cc(C)c(Cl)cc1SCc1cccc2ccccc12 is ____.
Result: 1.76

Q: # logkwCN lookup, item COc1ccc(-c2cnnc(NS(=O)(=O)c3cc(C(=O)Nc4ccccc4)c(Cl)cc3SCc3ccccc3)n2)cc1
Result: 2.02

Q: Could you share which logkwCN value was measured for O=S(=O)(Nc1cccc2cccnc12)c1ccc(-n2cccc2)cc1 ?
Result: 4.04

----------
For each entry below, report its CHIC18 value.
- EXPERIMENT_DESCRIPTION: C18 chromatography (RP-HPLC), chromatographic hydrophobicity index
- Format: physicochemical
- CONDITION_SUMMARY: pH 7.4, 40 °C, acetonitrile gradient
- Source text: For this reason, the next step of our study concerns the characterization of investigated sulfonamide derivatives using a chromatographic approach. Generally, in RP-HPLC, the interactions between solutes and the stationary phase surface are mainly governed by lipophilicity. Consequently, RP-HPLC is the primary tool for assessing the lipophilicity of xenobiotics. […]

Q: Quick one: CHIC18 for Cc1cc(S(=O)(=O)Nc2nncc(-c3cccc(F)c3)n2)c(SCc2ccccc2)cc1Cl ?
Result: 77.90

Q: Which CHIC18 is reported for this compound? Cc1cc(S(=O)(=O)Nc2nnc(-c3ccccc3)c(=O)[nH]2)c(SCc2cccc3ccccc23)cc1Cl
Result: 84.30

Q: Suppose we examine the compound Cc1cc(S(=O)(=O)Nc2nncc(-c3cccc(F)c3)n2)c(SCc2cccc3ccccc23)cc1Cl ; what CHIC18 value has been reported?
Result: 84.60

Q: Tell me the measured CHIC18 of Cc1cc(C)nc(NS(=O)(=O)c2ccc(-n3cccc3)cc2)n1 , please.
Result: 63.80

Q: Reported CHIC18, compound COc1ccc(-c2cnnc(NS(=O)(=O)c3cc(C)c(Cl)cc3SCc3ccc(C(F)(F)F)cc3)n2)cc1 : ____
Result: 84.40

Q: Value lookup for CHIC18; key = COc1ccc(-c2cnnc(NS(=O)(=O)c3cc(C(=O)Nc4ccccc4)c(Cl)cc3SCc3ccccc3)n2)cc1
Result: 78.90

Q: Need CHIC18 of Cc1ccc(NC(=O)c2cc(S(=O)(=O)Nc3nncc(-c4ccc(C(F)(F)F)cc4)n3)c(SCc3ccccc3)cc2Cl)cc1 , thanks.
Result: 89.90

----------
- EXPERIMENT_DESCRIPTION: C8 chromatography (RP-HPLC), logkw from two gradients with DryLab
- Assay type: physicochemical
- CONDITION_SUMMARY: pH 7.4, 40 °C; retention factor extrapolated to 0% organic modifier
READOUT_TYPE: logkwC8
Answer using only a numeral; do not append any unit.

Q: Entry under review: COc1ccc(-c2cnnc(NS(=O)(=O)c3cc(C(=O)Nc4ccc(Cl)cc4)c(Cl)cc3SCc3ccccc3)n2)cc1 . Reported logkwC8?
Result: 4.38

Q: Given COc1cc(-c2cnnc(NS(=O)(=O)c3cc(C(=O)Nc4ccc(C)cc4)c(Cl)cc3SCc3ccccc3)n2)cc(OC)c1OC , state its recorded logkwC8.
Result: 4.07

Q: Tell me the measured logkwC8 of Cc1cc(S(=O)(=O)Nc2nncc(-c3cccc(F)c3)n2)c(SCc2ccccc2)cc1Cl , please.
Result: 4.03

Q: logkwC8 lookup needed for COc1ccc(-c2cnnc(NS(=O)(=O)c3cc(C)c(Cl)cc3SCc3cccc4ccccc34)n2)cc1 , thanks.
Result: 4.12

Q: Please report the recorded logkwC8 for Cc1ccnc(NS(=O)(=O)c2ccc(-n3cccc3)cc2)n1 .
Result: 2.98

Q: # logkwC8 lookup, item COc1ccc(-c2cnnc(NS(=O)(=O)c3cc(C(=O)Nc4ccccc4)c(Cl)cc3SCc3ccccc3)n2)cc1
Result: 4.13

Q: Returns the measured logkwC8 for the input molecule. Input: Cc1cc(S(=O)(=O)Nc2nnc(Cc3ccccc3[N+](=O)[O-])c(=O)[nH]2)c(SCc2cc3c(cc2Cl)OCO3)cc1Cl
Result: 4.07

Q: Consider the molecule shown here: COc1ccc(-c2cnnc(NS(=O)(=O)c3cc(C(=O)Nc4ccc(C)cc4)c(Cl)cc3SCc3ccccc3)n2)cc1 What is its recorded logkwC8?
Result: 4.28

Q: Field request: logkwC8 | item: Cc1ccc2cccnc2c1NS(=O)(=O)c1ccc(-n2cccc2)cc1
Result: 4.59

Q: I'd like to know its logkwC8. The molecule in question is COc1ccc(-c2cnnc(NS(=O)(=O)c3cc(C)c(Cl)cc3SCc3ccc(C(F)(F)F)cc3)n2)cc1
Result: 4.26

Q: # query: logkwC8 of entry Cc1cc(C)nc(NS(=O)(=O)c2ccc(-n3cccc3)cc2)n1
Result: 3.30

Q: Fill in the blank: the reported logkwC8 of Cc1cc(S(=O)(=O)Nc2nnc(-c3ccccc3)c(=O)[nH]2)c(SCc2ccc(C(F)(F)F)cc2)cc1Cl is ____.
Result: 4.21

Q: Need logkwC8, item O=S(=O)(Nc1ccc(Cl)cc1)c1ccc(-n2cccc2)cc1
Result: 4.61

Q: // returns reported logkwC8 for input O=S(=O)(Nc1cccc2cccnc12)c1ccc(-n2cccc2)cc1
Result: 4.68

Q: Item under review: Cc1cc(S(=O)(=O)Nc2nnc(-c3ccccc3)c(=O)[nH]2)c(SCc2cccc3ccccc23)cc1Cl . Reported logkwC8?
Result: 4.21

Q: # input molecule: Cc1ccc2cccc(NS(=O)(=O)c3ccc(-n4cccc4)cc3)c2n1 ; wanted: its logkwC8
Result: 4.90

Q: What value of measured logkwC8 is listed for Cc1cc(S(=O)(=O)NC(=O)C=Cc2ccccc2)c(SCc2cccc3ccccc23)cc1Cl ?
Result: 4.28

Q: Returns the measured logkwC8 for the input molecule. Input: COc1ccc(NC(=O)c2cc(S(=O)(=O)Nc3nncc(-c4ccc(OC)cc4)n3)c(SCc3ccccc3)cc2Cl)cc1
Result: 4.02

Q: Could you share which logkwC8 value was measured for Cc1cc(S(=O)(=O)Nc2nncc(-c3ccc(C(F)(F)F)cc3)n2)c(SCc2ccc(C(F)(F)F)cc2)cc1Cl ?
Result: 4.44
